This collection of values is drawn from patent US5861476A.

- tested on: IL-1 induced down-regulation of the epidermal growth factor (EGF) receptor in normal human dermal fibroblasts (NHDF) (Homo sapiens)
- Sequence (P14778 18-569): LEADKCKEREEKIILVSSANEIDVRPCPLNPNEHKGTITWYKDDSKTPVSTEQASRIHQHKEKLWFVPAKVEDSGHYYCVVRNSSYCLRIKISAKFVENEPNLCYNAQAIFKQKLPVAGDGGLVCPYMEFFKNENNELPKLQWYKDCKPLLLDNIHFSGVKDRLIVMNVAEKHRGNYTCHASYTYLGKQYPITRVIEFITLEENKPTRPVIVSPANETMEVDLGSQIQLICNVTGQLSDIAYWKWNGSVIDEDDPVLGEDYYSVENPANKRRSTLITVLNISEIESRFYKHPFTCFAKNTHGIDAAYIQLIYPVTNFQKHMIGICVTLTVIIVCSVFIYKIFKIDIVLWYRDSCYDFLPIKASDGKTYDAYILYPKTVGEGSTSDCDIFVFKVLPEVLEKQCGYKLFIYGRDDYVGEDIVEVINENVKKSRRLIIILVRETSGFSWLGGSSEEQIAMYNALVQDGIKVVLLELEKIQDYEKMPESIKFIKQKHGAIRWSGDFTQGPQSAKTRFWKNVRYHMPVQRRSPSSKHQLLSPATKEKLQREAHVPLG
- experimental details: Epidermal Growth Factor Receptor Down Regulation Assay
- condition summary: 37° C., in the presence of IL-1α, 125I-labeled EGF binding, read-out: IC50 (approximate concentration which blocked 50% of the IL-1 induced down regulation of the EGF receptor)
pIC50: −log10 of the molar value. Where a SMILES comes first, the peptide text is derived from it. [ ]: non-standard residue; d: D form. pY = N[C@@H](Cc1ccc(OP(=O)(O)O)cc1)C(=O)O; 1Nal = N[C@@H](Cc1cccc2ccccc12)C(=O)O; Aze = O=C(O)[C@@H]1CCN1
assay metric: pIC50

Entry under review: CC(=O)N[C@@H](Cc1ccccc1)C(=O)N[C@@H](CCC(=O)O)C(=O)N[C@@H](Cc1c[nH]c2ccccc12)C(=O)N[C@H](C(=O)N1CCC[C@H]1C(=O)N[C@H](C)C(=O)N[C@@H](Cc1ccc(O)cc1)C(=O)N[C@@H](Cc1ccc(O)cc1)C(=O)N[C@@H](CCC(N)=O)C(=O)N1CC[C@H]1C(=O)N[C@@H](Cc1ccc(O)cc1)C(N)=O)[C@@H](C)O [AcFEWTPaYYQJY--NH2] (Ac-FEWTP[dA]YYQ[Aze]Y-NH2) . Reported pIC50?
≥ 4.00

Entry under review: CC(C)C[C@H](NC(=O)[C@@H]1CCCN1C(=O)[C@H](CC(C)C)NC(=O)[C@H](C)NC(=O)[C@H](Cc1ccc(O)cc1)NC(=O)[C@@H]1CCN1C(=O)[C@H](CCC(N)=O)NC(=O)[C@H](Cc1ccc(OP(=O)(O)O)cc1)NC(=O)[C@H](Cc1cccc2ccccc12)NC(=O)[C@@H](N)Cc1ccc(OP(=O)(O)O)cc1)C(=O)O [pY(1Nap)pYQJYALPL] (H-[pY][1Nal][pY]Q[Aze]YALPL-OH) . Reported pIC50?
≥ 6.30

###

Readings of pIC50 for the listed compounds
- tested on: IL-1 induced down-regulation of the epidermal growth factor (EGF) receptor in normal human dermal fibroblasts (NHDF) (Homo sapiens, UniProt P14778)
- experimental details: Epidermal Growth Factor Receptor Down Regulation Assay
- condition summary: 37° C., in the presence of IL-1α, 125I-labeled EGF binding, read-out: IC50 (approximate concentration which blocked 50% of the IL-1 induced down regulation of the EGF receptor)
pIC50: −log10 of the molar value. Where a SMILES comes first, the peptide text is derived from it. [ ]: non-standard residue; d: D form. Aze = O=C(O)[C@@H]1CCN1

Here is how some compounds turned out for pIC50.
CC(C)C[C@H](NC(=O)[C@@H]1CCCN1C(=O)[C@H](CC(C)C)NC(=O)[C@H](C)NC(=O)[C@H](Cc1ccc(O)cc1)NC(=O)[C@@H]1CCN1C(=O)[C@H](CCC(N)=O)NC(=O)[C@H](Cc1c[nH]c2ccccc12)NC(=O)[C@H](Cc1ccc(O)cc1)NC(=O)CNC(=O)[C@@H]1CCCN1C(=O)[C@@H](NC(=O)[C@H](Cc1c[nH]c2ccccc12)NC(=O)[C@H](CCC(=O)O)NC(=O)[C@@H](N)Cc1ccccc1)[C@@H](C)O)C(=O)O [FEWTPGYWQJYALPL] (H-FEWTPGYWQ[Aze]YALPL-OH) ... ≥ 6.30
CC(C)C[C@H](NC(=O)[C@@H]1CCCN1C(=O)[C@H](CC(C)C)NC(=O)[C@H](C)NC(=O)[C@H](Cc1ccc(O)cc1)NC(=O)[C@@H]1CCN1C(=O)[C@H](CCC(N)=O)NC(=O)[C@H](Cc1c[nH]c2ccccc12)NC(=O)[C@H](Cc1ccc(O)cc1)NC(=O)[C@@H](NC(=O)[C@H](Cc1ccccc1)NC(=O)[C@@H](N)[C@@H](C)O)C(C)C)C(=O)O [TFVYWQJYALPL] (H-TFVYWQ[Aze]YALPL-OH) ... < 4.00
CC(=O)N[C@@H](Cc1ccccc1)C(=O)N[C@@H](CCC(=O)O)C(=O)N[C@@H](Cc1c[nH]c2ccccc12)C(=O)N[C@H](C(=O)N1CCC[C@H]1C(=O)N[C@H](C)C(=O)N[C@@H](Cc1ccc(O)cc1)C(=O)N[C@@H](Cc1c[nH]c2ccccc12)C(=O)N[C@@H](CCC(N)=O)C(=O)N1CC[C@H]1C(=O)N[C@@H](Cc1ccc(O)cc1)C(N)=O)[C@@H](C)O [AcFEWTPaYWQJY--NH2] (Ac-FEWTP[dA]YWQ[Aze]Y-NH2) ... ≥ 4.00

Kindly consider the entry below.
Entry under review: C[C@@H](O)[C@H](NC(=O)[C@H](Cc1c[nH]c2ccccc12)NC(=O)[C@H](CCC(=O)O)NC(=O)[C@@H](N)Cc1ccccc1)C(=O)N1CCC[C@H]1C(=O)NCC(=O)N[C@@H](Cc1ccc(O)cc1)C(=O)N[C@@H](Cc1c[nH]c2ccccc12)C(=O)N[C@@H](CCC(N)=O)C(=O)N1CC[C@H]1C(=O)N[C@@H](Cc1ccc(O)cc1)C(N)=O [FEWTPGYWQJY--NH2] (H-FEWTPGYWQ[Aze]Y-NH2) . Reported pIC50?
≥ 4.00
